- Tested on: SR
- Assay: NCI tumour cell line growth inhibition, 48 h
The source made the active and inactive calls. Cut-off read from the data, not from the text of the source: active = GI50 up to about 1.1 µM and inactive = higher.
# output must be one of Yes = active, No = inactive

- Compound: "CC(C)(C)OC(=O)N1C(c2cccnc2)=CC[C@H]2C3CC=C(c4cccnc4)[C@@]3(C)CC[C@@H]21 (stereo not given in full)"
  Test system: "SR"
  Qualitative label: "No"
- Compound: "C=C(Cl)C(C)(Cl)CCC(Cl)C(C)(C)Cl (stereo not given)"
  Test system: "SR"
  Qualitative label: "No"
- Compound: "COc1ccccc1N(CN1C(=O)CCC1C(=O)O)C(C)=O (stereo not given)"
  Test system: "SR"
  Qualitative label: "No"
- Compound: "C#CC1(OC(C)=O)CCC2C3CC=C4C=C(OC(C)=O)CCC4(C)C3CCC21C (stereo not given)"
  Test system: "SR"
  Qualitative label: "No"
- Compound: "CCOC(=O)CON=c1c2ccccc2ccc2ccccc12"
  Test system: "SR"
  Qualitative label: "No"

I'd appreciate the recorded outcome for CO/N=C1/c2sccc2[C@H](NC(=O)C(Cc2ccccc2)NC(=O)OC(C)(C)C)[C@@H]1O (stereo not given in full) from this test.
No

---

// GI50 lookup, one value per entry
- Test system: SK-OV-3
- Assay: NCI tumour cell line growth inhibition, 48 h
The source made the active and inactive calls. Cut-off read from the data, not from the text of the source: active = GI50 up to about 1.1 µM and inactive = higher.

# example entries with known answers
- Compound: "O=S1(=O)CCN(Cc2ccccc2)/C1=N\\S(=O)(=O)c1ccc(Cl)cc1"
  GI50: "47.4 µM (inactive)"
- Compound: "O=C(O)CSc1nnc(/C=C/c2ccccc2)[nH]1"
  GI50: "> 100 µM (inactive)"
- Compound: "CC12CCC3c4cc(Br)c(O)c(Br)c4CCC3C1CCC2O (stereo unspecified)"
  GI50: "23.5 µM (inactive)"
- Compound: "Cc1ccc(NC(=O)/C(=N\\NC(N)=S)C(C#N)c2ccccc2C)cc1C (stereo unspecified)"
  GI50: "> 100 µM (inactive)"
- Compound: "Nc1cccc2nsnc12"
  GI50: "> 100 µM (inactive)"

Query (compound): Cc1nn(-c2ccccc2)c2c1C(c1ccc(Cl)cc1)NC(=S)N2 (stereo unspecified) ; field requested: GI50
22.9 µM (inactive)

Another compound to look at: O=C1[C@@H]2[C@@H](c3ccccc3)[C@]2(Cl)C(=O)[C@H]2[C@H](c3ccccc3)[C@@]12Cl
> 100 µM (inactive)

Could you do the same for Fc1nc(F)nc(-c2c3ccccc3c3n2CCS3)n1 , please?
> 100 µM (inactive)

Try the compound CCOP(=O)(OCC)/C(C#N)=C/c1c(C)[nH]c2ccccc12
> 100 µM (inactive)

Next entry: CC12CCC(C(=O)O1)C(C)(C)O2 (stereo unspecified)
> 100 µM (inactive)

Proceed to S=C(c1c[nH]c2ccccc12)N1CCN(Cc2ccccc2)CC1
20.7 µM (inactive)

---

- Tested on: COLO 205
- Assay: NCI tumour cell line growth inhibition, 48 h
Calls of active or inactive are those of the source. Rule as the data show it: active = GI50 up to about 1.1 µM and inactive = higher.
GI50 values for the molecules below.

- Molecule: "O=C1[C@@H]2[C@@H](c3ccccc3)[C@]2(Cl)C(=O)[C@H]2[C@H](c3ccccc3)[C@@]12Cl"
  GI50: "> 100 µM (inactive)"
- Molecule: "Cc1cccc(-c2nnc3s/c(=C\\c4ccc(N(C)C)cc4)c(=O)n23)c1"
  GI50: "> 100 µM (inactive)"
- Molecule: "CCCCN(CCCC)C(=O)C(=O)C(C(=O)C(=O)OC)c1nc2ccccc2o1 (stereo not given)"
  GI50: "> 100 µM (inactive)"

Which GI50 is listed for O=C(O)c1nc2cc(C(F)(F)F)ccc2nc1Nc1ccc(F)cc1 ?
15.9 µM (inactive)

Also CC[N+]1(C)CCC(O)(c2ccc(C)cc2)C(C(=O)c2ccc(C)cc2)C1 (stereo not given) ?
25.5 µM (inactive)
